# ASSAY: qHTS assay for identifying genotoxic compounds that show differential cytotoxicity against isogenic chicken DT40 cell lines with known DNA damage response pathways - Rad54/Ku70 mutant cell line (AID 743015); note: nearly all actives have a fitted effect of over 60% in size
# MEASUREMENT PARAMETERS: DT40 Rad54/Ku70 mutant viability, CellTiter-Glo, 40 h; series mostly up to 66.8 µM
Inconclusive results are not listed. The source made the active and inactive calls. Calls come from the whole dose curve; as a rule, active = well fitted cell-killing curve with a large enough effect in the repeat runs; inconclusive = weak or mixed curves; inactive = no such curve, though single readings can be large or run the other way.
Just give me one of these, please: YES = active, NO = inactive

Answered cases to consult:
O=C(O)c1cccc(C(F)(F)F)c1: NO
Cc1ccc(C)cc1: NO
C=CCn1c(=O)n(CC=C)c(=O)n(CC=C)c1=O: NO
O=C(O)CCN(C1(C(=O)NO)CCCC1)S(=O)(=O)c1ccc(Oc2ccc(F)cc2)cc1: NO
CCO[C@@H]1O[C@H](C(COCc2ccccc2)OCc2ccccc2)[C@H](OCc2ccccc2)[C@H]1O (stereo not given in full): YES
CCCCCCCCCCCCOCCOCCOCCOCCOCCOCCOCCOCCOCCO: YES

I would be grateful if you could indicate the recorded call for Cc1cccc2cccnc12 . NO

I would be grateful if you could indicate the recorded call for Cl[Si](Cl)(c1ccccc1)c1ccccc1 . NO

I would be grateful if you could indicate the recorded call for CC(=O)Oc1cc2c(s1)CCN(C(C(=O)C1CC1)c1ccccc1F)C2 (stereo not given) . NO

I would be grateful if you could indicate the recorded call for CC1(C)CC(O)CC(C)(C)N1 . NO

I would be grateful if you could indicate the recorded call for CN1CCC[C@@H]1CCO[C@](C)(c1ccccc1)c1ccc(Cl)cc1 . YES

I would be grateful if you could indicate the recorded call for CCCCNS(=O)(=O)c1ccc(C)cc1 . NO

I would be grateful if you could indicate the recorded call for CCC(C)n1ncn(-c2ccc(N3CCN(c4ccc(OC[C@H]5CO[C@](Cn6cncn6)(c6ccc(Cl)cc6Cl)O5)cc4)CC3)cc2)c1=O (stereo not given in full) . YES

I would be grateful if you could indicate the recorded call for NC(=S)NC(N)=S . YES

I would be grateful if you could indicate the recorded call for Cc1ccc(N/N=c2\c(=O)cc/c(=N\Nc3ccc(S(=O)(=O)O)cc3)c2=O)c(C)c1 . NO

* * *

# ASSAY: A CellTox Green Cytotoxicity Assay to monitor cytotoxicity in HepG2 cells - 24 hour (AID 1224878); note: nearly all actives have a fitted effect of over 45% in size; for Cytotoxicity: % is set by controls: 0 for no effect and ±100 for the full control effect
# MEASUREMENT PARAMETERS: CellTox Green fluorescence; series mostly up to 76.8 µM
Records with an inconclusive call do not appear. Activity calls are given as the source filed them. Calls come from the whole dose curve; as a rule, active = well fitted activation curve with a large enough effect in the repeat runs; inconclusive = weak or mixed curves; inactive = flat fitted curve, though single readings scatter.
Just give me one of these, please: active, inactive

Answered cases to consult:
CCCC1CCC(=O)CC1: inactive
CC(C)(C)c1csc(-c2cc3cc(OCc4ccccc4CC(=O)O)ccc3o2)n1: active
COC(=O)C1=C(C)NC(C)=C(C(=O)OCCN2CCN(C(c3ccccc3)c3ccccc3)CC2)C1c1cccc([N+](=O)[O-])c1 (centres undefined): inactive

I would be grateful if you could indicate the recorded call for COC(=O)c1ccccc1OC . inactive

* * *

# SYSTEM TESTED: Cytochrome P450 2C9 (Homo sapiens) (UniProt P11712)
# Sequence (P11712 whole entry, looked up): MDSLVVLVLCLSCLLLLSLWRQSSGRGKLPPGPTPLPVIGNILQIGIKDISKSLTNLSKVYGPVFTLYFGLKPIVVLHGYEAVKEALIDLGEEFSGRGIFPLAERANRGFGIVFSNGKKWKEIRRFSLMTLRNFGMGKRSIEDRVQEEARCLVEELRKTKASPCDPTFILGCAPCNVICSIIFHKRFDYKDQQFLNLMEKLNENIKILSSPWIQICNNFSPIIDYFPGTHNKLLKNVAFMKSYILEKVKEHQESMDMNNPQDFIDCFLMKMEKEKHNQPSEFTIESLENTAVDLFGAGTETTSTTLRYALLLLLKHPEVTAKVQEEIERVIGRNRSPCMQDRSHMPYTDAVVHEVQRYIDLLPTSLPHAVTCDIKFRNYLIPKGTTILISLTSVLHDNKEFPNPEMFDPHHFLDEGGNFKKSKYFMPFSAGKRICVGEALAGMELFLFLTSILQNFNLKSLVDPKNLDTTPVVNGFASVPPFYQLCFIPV
# ASSAY: Cytochrome P450 Family 2 Subfamily C Member 9 (CYP2C9) small molecule antagonists: luciferase reporter qHTS assay (AID 1671198); note: nearly all actives have a fitted effect of over 50% in size
# MEASUREMENT PARAMETERS: P450-Glo CYP2C9 enzyme assay, luciferin luminescence; series mostly up to 115 µM
Results filed as inconclusive are left out. The source made the active and inactive calls. The call rests on the fitted dose curve; in most records, active means well fitted inhibition curve with a large enough effect in the repeat runs; inconclusive means weak or mixed curves; inactive means no such curve, though single readings can be large or run the other way.
Just give me one of these, please: yes (1) for active, no (0) for inactive

Answered cases to consult:
S=C([S-])NCCNC(=S)[S-].S=C([S-])NCCNC(=S)[S-].[Mn+2].[Zn+2]: yes (1)
Clc1nnc(Cl)c2ccccc12: no (0)
O=C(/C=C/c1ccc(O)c(O)c1)O[C@@H](C(=O)O)[C@@H](OC(=O)/C=C/c1ccc(O)c(O)c1)C(=O)O: no (0)
O=C(O)Cc1ccc2c(c1)C(=O)c1ccccc1CO2: no (0)
O=C1CCCCCCCCCCCCCCCO1: no (0)

I would be grateful if you could indicate the recorded call for OC12N=C(c3ccccc3)SC1Cc1cc(Cl)ccc12 (centres undefined) . yes (1)

I would be grateful if you could indicate the recorded call for CCCCCCCCCCCCOC(=O)c1ccc(O)cc1 . yes (1)

I would be grateful if you could indicate the recorded call for CCCC(=O)OCCc1ccccc1 . no (0)

I would be grateful if you could indicate the recorded call for C#C[C@]1(OC(C)=O)CC[C@H]2[C@@H]3CCC4=C/C(=N/O)CC[C@@H]4[C@H]3CC[C@@]21CC . yes (1)

I would be grateful if you could indicate the recorded call for Clc1sc(Cl)c(Cl)c1Cl . no (0)

I would be grateful if you could indicate the recorded call for CCc1oc2ccccc2c1C(=O)c1cc(I)c(O)c(I)c1 . yes (1)

I would be grateful if you could indicate the recorded call for CCOC(=O)c1ccc(C2CCC(NC[C@H](O)COc3ccc(O)c(NS(C)(=O)=O)c3)CC2)cc1 (some centres undefined) . yes (1)

I would be grateful if you could indicate the recorded call for O=C(O)CCN(C1(C(=O)NO)CCCC1)S(=O)(=O)c1ccc(Oc2ccc(F)cc2)cc1 . no (0)

I would be grateful if you could indicate the recorded call for Cc1c(F)c(N2CCNC(C)C2)cc2c1c(=O)c(C(=O)O)cn2C1CC1 (centres undefined) . no (0)

* * *

# SYSTEM TESTED: Cytochrome P450 2C19 (Homo sapiens) (UniProt P33261)
# Sequence (P33261 whole entry, looked up): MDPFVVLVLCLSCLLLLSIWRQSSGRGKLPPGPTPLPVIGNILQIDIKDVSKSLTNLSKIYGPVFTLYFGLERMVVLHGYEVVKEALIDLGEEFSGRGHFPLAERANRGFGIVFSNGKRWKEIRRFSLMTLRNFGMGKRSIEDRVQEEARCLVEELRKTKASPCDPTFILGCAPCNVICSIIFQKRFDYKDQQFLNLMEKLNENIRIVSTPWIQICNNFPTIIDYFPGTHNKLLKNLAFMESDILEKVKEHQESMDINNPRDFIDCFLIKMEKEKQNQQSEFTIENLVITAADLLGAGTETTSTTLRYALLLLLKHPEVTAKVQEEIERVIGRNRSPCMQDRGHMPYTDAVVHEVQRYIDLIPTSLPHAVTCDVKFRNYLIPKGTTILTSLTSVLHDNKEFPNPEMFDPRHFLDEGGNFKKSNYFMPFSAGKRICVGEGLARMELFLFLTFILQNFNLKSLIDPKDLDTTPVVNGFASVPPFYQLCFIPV
# ASSAY: Cytochrome P450 Family 2 Subfamily C Member 19 (CYP2C19) small molecule antagonists: luciferase reporter qHTS assay (AID 1671197); note: nearly all actives have a fitted effect of over 65% in size
# MEASUREMENT PARAMETERS: P450-Glo CYP2C19 enzyme, luciferin luminescence, 1 h; series mostly up to 115 µM
Records with an inconclusive call do not appear. The source made the active and inactive calls. Calls come from the whole dose curve; as a rule, active = well fitted inhibition curve with a large enough effect in the repeat runs; inconclusive = weak or mixed curves; inactive = no such curve, though single readings can be large or run the other way.
Just give me one of these, please: 1 for active, -1 for inactive

Answered cases to consult:
O=C(/C=C/c1ccccc1)OC/C=C/c1ccccc1: 1
CCC(=O)C(=O)CC: 1

I would be grateful if you could indicate the recorded call for Nc1ccc(C(=O)O)c(O)c1 . -1

I would be grateful if you could indicate the recorded call for CNc1ccc([N+](=O)[O-])cc1 . 1

* * *

# ASSAY: Caspase-3/7 induction in HepG2 cells by small molecules, qHTS cell viability counter screen (AID 1346981); note: nearly all actives have a fitted effect of over 30% in size; note: potency is the fitted concentration of half-maximal effect
# MEASUREMENT PARAMETERS: CellTiter-Fluor fluorescence, 17 h; series mostly up to 92.4 µM
# Source text: U.S. Tox21 Program National Center for Advancing Translational Sciences [NCATS] NIH Chemical Genomics Center [NCGC] U.S. Environmental Protection Agency [EPA] National Institutes of Environmental Health Sciences [NIEHS] National Toxicology Program [NTP] U.S. Food and Drug Administration [FDA] Tox21 Assay Overview: Apoptosis is a process of programmed cell death and plays a central role in the development of multicellular organisms. […]
Inconclusive results are not listed. The source made the active and inactive calls. The call rests on the fitted dose curve; in most records, active means well fitted cell-killing curve with a large enough effect in the repeat runs; inconclusive means weak or mixed curves, or effect the other way; inactive means flat fitted curve, though single readings scatter.
MEASUREMENT LABEL: Potency

Worked cases, answers included:
Clc1sc(Cl)c(Cl)c1Cl: inactive
Cc1nc2n(c(=O)c1CCN1CCC(c3noc4cc(F)ccc34)CC1)CCCC2: inactive
COc1ccc(-c2coc3cc(O)ccc3c2=O)cc1: inactive
NC(=S)NC(N)=S: inactive
COc1cccc(OC)c1C(=O)O: inactive
CCC(COC(=O)CCS)(COC(=O)CCS)COC(=O)CCS: inactive

State its Potency for this compound: CC1=CCC(=C(C)C)CC1 inactive

State its Potency for this compound: Nc1ccc(C(=O)O)c(O)c1 inactive

State its Potency for this compound: Cc1cc(-c2ccc(N=Nc3cc(S(=O)(=O)O)c4ccccc4c3N)c(C)c2)ccc1N=Nc1cc(S(=O)(=O)O)c2ccccc2c1N inactive

State its Potency for this compound: CCCCCCCCCCCCCCCC[N+](C)(C)CC 61.3 µM (active)

State its Potency for this compound: COc1ccc(NC(=O)CC(C)=O)cc1 inactive

State its Potency for this compound: CCCCCCCCCCCCOCCOCCOCCOCCOCCOCCOCCOCCOCCO 29.8 µM (active)

* * *

# ASSAY: qHTS RealTime-Glo MT Cell Viability Assay in HEK293 cells - 0 hour (AID 1224880); note: top concentration of the series differs between compounds; % is set by controls: 0 for no effect and ±100 for the full control effect; nearly all actives have a fitted effect of over 45% in size
# MEASUREMENT PARAMETERS: RealTime-Glo luminescence; series mostly up to 76.8 µM
Records with an inconclusive call do not appear. Calls of active or inactive are those of the source. The call rests on the fitted dose curve; in most records, active means well fitted cell-killing curve with a large enough effect in the repeat runs; inconclusive means weak or mixed curves, or effect the other way; inactive means flat fitted curve, though single readings scatter.
MEASUREMENT LABEL: activity change, negative = cytotoxicity

CCN(CC)c1ccc2c(-c3ccc(S(=O)(=O)O)cc3S(=O)(=O)[O-])c3ccc(=[N+](CC)CC)cc-3oc2c1: inactive
CCc1cccc(CC)c1NC(=O)CN(CC(=O)O)CC(=O)O: inactive
O=C(O)c1cc(-c2ccc(F)cc2F)ccc1O: inactive
C[C@@H](O)[C@H](N)C(=O)O: -2.75% [at 15.8 µM] (inactive)
